Measured values drawn from patent US20180057505A1 for this set.

Target: PAR2 (HT-29 cells) (Homo sapiens)
Construct: host or cells: HT-29
Sequence (P55085 26-397): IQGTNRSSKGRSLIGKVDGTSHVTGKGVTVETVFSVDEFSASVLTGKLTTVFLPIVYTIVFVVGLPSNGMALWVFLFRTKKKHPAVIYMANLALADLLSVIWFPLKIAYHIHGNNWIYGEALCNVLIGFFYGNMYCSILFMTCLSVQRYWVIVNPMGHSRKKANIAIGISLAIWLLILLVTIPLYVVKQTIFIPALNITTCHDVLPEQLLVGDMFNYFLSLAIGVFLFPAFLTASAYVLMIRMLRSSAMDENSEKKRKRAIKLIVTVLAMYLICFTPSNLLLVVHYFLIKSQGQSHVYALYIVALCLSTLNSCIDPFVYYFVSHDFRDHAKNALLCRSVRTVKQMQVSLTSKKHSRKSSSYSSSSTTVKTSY
Experiment: Ca FLIPR TETRA assay, ANTAGONIST mode, activator 3.1 U/mL trypsin
Assay type: cell-based
Details: HT-29 cells; activator 3.1 U/mL trypsin; Method A: maximal concentration of antagonist 0.1, 1 or 2 μM
Form field: IC50 (one value per entry).
measure.name: IC50 (nM)

                                    molecule  value_units  test_result
 0  Cc1ccnc(N2CCN(C(=O)c3cc4nc(-c5ccc(Cl)cc5)cc(C(C)(C)C)c4o3)C(C)(C)C2)n1 [Example I-403]           nM           24
 1  Cc1cnc(N2CCN(C(=O)c3cc4nc(-c5ccc(Cl)cc5)cc(C(C)(C)C)c4o3)C(C)(C)C2)nc1 [Example I-388]           nM         28.5
 2  Cc1ccc(N2CCN(C(=O)c3cc4nc(-c5ccc(Cl)c(F)c5)cc(C(C)(C)C)c4o3)C(C)(C)C2)nc1C(=O)O [Example I-487]           nM          0.3
 3  Cc1nc(N2CCN(C(=O)c3cc4nc(-c5ccc(Cl)c(F)c5)cc(C(C)(C)C)c4o3)C(C)(C)C2)ncc1C(=O)O [Example I-466]           nM          0.4
 4  CC(C)(C)c1cc(-c2ccc(Cl)cc2)nc2cc(C(=O)N3CCN(c4cccc(C(=O)O)n4)CC3(C)C)oc12 [Example I-479]           nM          0.3
 5  Cc1coc(N2CCN(C(=O)c3cc4nc(C5CCC(C)(C)CC5)cc(C(C)(C)C)c4o3)C(C)(C)C2)n1 [Example I-382]           nM          100
 6  CC(C)(C)c1cc(-c2ccc(Cl)cc2)nc2cc(C(=O)N3CCN(c4cnc(C(=O)O)cn4)CC3(C)C)oc12 [Example I-452]           nM          6.6
 7  CC(C)(C)c1cc(-c2ccc(Cl)c(F)c2)nc2cc(C(=O)N3CCN(c4nc(C(=O)O)ccc4F)CC3(C)C)oc12 [Example I-501]           nM          0.1
 8  CC(C)(C)c1cc(-c2ccc(Cl)c(F)c2)nc2cc(C(=O)N3CCN(c4cccc(C(N)=O)n4)CC3(C)C)oc12 [Example I-546]           nM          7.4
 9  CC(C)(C)c1cc(-c2ccc(Cl)c(F)c2)nc2cc(C(=O)N3CCN(C(=O)CC4(C(=O)O)CCOCC4)CC3(C)C)oc12 [Example I-497]           nM          2.2
10  CC1(O)CC(C(=O)N2CCN(C(=O)c3cc4nc(N5CCC(F)(F)C5)cc(C(C)(C)C)c4o3)C(C)(C)C2)C1 (centres unmarked) [Example I-439]           nM           96
11  CC(C)(C)c1cc(-c2ccc(Cl)cc2)nc2cc(C(=O)N3CCC(=O)NCC3(C)C)oc12 [Example I-322]           nM          240
12  CC(C)(C)c1cc(-c2ccc(Cl)c(F)c2)nc2cc(C(=O)N3CCN(c4nc(C(=O)O)ccc4Cl)CC3(C)C)oc12 [Example I-365]           nM          0.3
13  COc1cc(N2CCN(C(=O)c3cc4nc(-c5ccc(Cl)c(F)c5)cc(C(C)(C)C)c4o3)C(C)(C)C2)ncc1C(=O)O [Example I-534]           nM          0.1
